Measurement Description: Relative volatility, separation of m-xylene from o-xylene, vapor-liquid equilibrium still
Format: physicochemical
Measurement Parameters: m-xylene from o-xylene; ineffective agents when mixed with cyclododecanol
Labelling: Relative Volatility reported below 1 becomes fulfilled; at or above becomes not fulfilled.

These recorded examples may help you get a feel for the data.
Compound	Group
CCCCCCOCCOCCO	fulfilled
CCC(=O)c1ccccc1	fulfilled
CC1COC(=O)O1 (centres unmarked) [Propylene carbonate]	not fulfilled
CCCCC(CC)COC(C)=O (centres unmarked) [2-Ethyl hexyl acetate]	not fulfilled
OCCc1ccccc1	not fulfilled

Answer whether the compound "Cc1ccccc1[N+](=O)[O-]" has Relative Volatility strictly less than 1 not fulfilled

Please determine if CCCCOCCOC(C)=O [Ethylene glycol butyl ether acetate] is below 1 in terms of Relative Volatility. not fulfilled

API: query returns whether the compound falls strictly under 1 in Relative Volatility. Query: CCCCC(CC)CO (centres unmarked) not fulfilled

Regarding CCOC(=O)CC(=O)OCC [Diethyl malonate] , kindly confirm whether its Relative Volatility is beneath 1. not fulfilled

====

Answer each item with its documented Relative Volatility.
Measurement Description: Relative volatility, separation of m-xylene from o-xylene, vapor-liquid equilibrium still
Format: physicochemical
Measurement Parameters: m-xylene to o-xylene; effective agents (alone or mixed as labelled); vapor-liquid equilibrium still

Consider the following illustrative entries.
Compound	Reported Metric	Recorded Value
CCCCCCC(C)O (stereo not shown)	Relative Volatility	1.30
OC1CCCCCCCCCCC1	Relative Volatility	1.37
CC(C)CCCCCCO [Isononyl alcohol (EXXON), Isononyl alcohol]	Relative Volatility	1.22
CCCCCCCCO	Relative Volatility	1.38
CC(C)CCCCCCCO [Isodecanol (ASHLAND), Isodecanol]	Relative Volatility	1.27

Look up Relative Volatility for the entries below, preserving their order.
1. CC(C)CCCCCO
2. CC(C)CCCCCCCO [Isodecanol (EXXON), Isodecanol]
3. CCCCCCCCCCCO
4. CC(C)CC(O)CC(C)C
5. CCCCCCCCCCCCO

1. 1.27
2. 1.18
3. 1.40
4. 1.27
5. 1.31

====

Would you mind telling me the reported Relative Volatility of each entry?
Measurement Description: Relative volatility, separation of p-xylene from m-xylene, vapor-liquid equilibrium still
Type: physicochemical
Measurement Parameters: * brings the m-xylene out as overhead (m-xylene to p-xylene); vapor-liquid equilibrium still
Give bare numbers.

Completed entries (count: 4):
Smiles Data	Relative Volatility
CCCCCCCCCCCO	1.14
CC(C)CC(O)CC(C)C	1.23
OCc1ccccc1	1.19
CCCCCCCCCO	1.14

Report Relative Volatility for "CCCCCCCCCCCCO" please. 1.11
